Test system: MDB-MA-231
Assay: MTT cytotoxicity assay
Assay type: cell-based, human
Details: read-out: IC50 MDB-MA-231, 48 h
QUANTITY_KIND: pIC50
Give bare numbers, as −log10 of the molar value.

{"COMPOUND": "F[P-](F)(F)(F)(F)F.OCc1ccnc(-c2cc(CO)ccn2)c1.[Ir+3].[c-]1ccccc1-c1ccccn1.[c-]1ccccc1-c1ccccn1 [Complex 1]", "QUANTITY_KIND": "pIC50", "REPORTED_VALUE": 4.61}
{"COMPOUND": "ClCc1ccnc(-c2cc(CCl)ccn2)c1.F[P-](F)(F)(F)(F)F.[Ir+3].[c-]1ccccc1-c1ccccn1.[c-]1ccccc1-c1ccccn1 [Complex 2]", "QUANTITY_KIND": "pIC50", "REPORTED_VALUE": 6.48}
{"COMPOUND": "ClCc1ccnc(-c2cc(CCl)ccn2)c1.F[P-](F)(F)(F)(F)F.Fc1c[c-]c(-c2ccccn2)c(F)c1.Fc1c[c-]c(-c2ccccn2)c(F)c1.[Ir+3] [Complex 4]", "QUANTITY_KIND": "pIC50", "REPORTED_VALUE": 6.18}
{"COMPOUND": "F[P-](F)(F)(F)(F)F.Fc1c[c-]c(-c2ccccn2)c(F)c1.Fc1c[c-]c(-c2ccccn2)c(F)c1.OCc1ccnc(-c2cc(CO)ccn2)c1.[Ir+3] [Complex 3]", "QUANTITY_KIND": "pIC50", "REPORTED_VALUE": 4.91}

Request: Which pIC50 value belongs to N.N.[Cl][Pt][Cl] [Cisplatin, reference compound] ?
Response: 4.56

----------
Assay: Lipophilicity, shake-flask log Po/w
Type: physicochemical
Details: octanol/water
QUANTITY_KIND: Lipophilicity (log Po/w)

The following compounds have reported results that may help.
{"SMILES_RECORD": "F[P-](F)(F)(F)(F)F.Fc1c[c-]c(-c2ccccn2)c(F)c1.Fc1c[c-]c(-c2ccccn2)c(F)c1.OCc1ccnc(-c2cc(CO)ccn2)c1.[Ir+3]", "REPORTED_VALUE": 1.09}
{"SMILES_RECORD": "ClCc1ccnc(-c2cc(CCl)ccn2)c1.F[P-](F)(F)(F)(F)F.Fc1c[c-]c(-c2ccccn2)c(F)c1.Fc1c[c-]c(-c2ccccn2)c(F)c1.[Ir+3]", "REPORTED_VALUE": 2.12}
{"SMILES_RECORD": "ClCc1ccnc(-c2cc(CCl)ccn2)c1.F[P-](F)(F)(F)(F)F.[Ir+3].[c-]1ccccc1-c1ccccn1.[c-]1ccccc1-c1ccccn1", "REPORTED_VALUE": 1.28}

From here, focus on the item given below.
Request: Consider the compound shown here: `F[P-](F)(F)(F)(F)F.OCc1ccnc(-c2cc(CO)ccn2)c1.[Ir+3].[c-]1ccccc1-c1ccccn1.[c-]1ccccc1-c1ccccn1` What is its recorded Lipophilicity (log Po/w)?
Response: 0.23
